- protocol-description: refractive index (Na D-line) (dimensionless)
- setup-conditions: 298.15 K; 101.33 kPa; Liquid; Standard Abbe refractometry
result-type: refractive index
Returns: the value as a bare number; no unit string appended.

Please list refractive index recorded for the molecule C=CC(C)(O)CCC=C(C)C (stereo not given) [3,7-dimethyl-1,6-octadien-3-ol]
1.45961

Please list refractive index recorded for the molecule CCCCCCCCCCn1cc[n+](C)c1.O=S(=O)([N-]S(=O)(=O)C(F)(F)F)C(F)(F)F
1.43584

----------
- protocol-description: refractive index (Na D-line) (dimensionless)
- setup-conditions: 298.15 K; 101.33 kPa; Liquid; Standard Abbe refractometry
result-type: refractive index
Returns: the value as a bare number; no unit string appended.

compound	refractive index
CCCCCC[n+]1ccn(C)c1.O=S(=O)([N-]S(=O)(=O)C(F)(F)F)C(F)(F)F	1.42879
C=C(C)[C@H]1CC=C(C)CC1 [(R)-1-methyl-4-(1-methylethenyl)cyclohexene]	1.47081

Please list refractive index recorded for the compound CCn1cc[n+](C)c1.O=S(=O)([N-]S(=O)(=O)C(F)(F)F)C(F)(F)F
1.42298

Value source: the NIST ThermoML archive (doi:10.1021/je1011339)
